Test system: Staphylococcus aureus NRS384 (MRSA USA300)
Test: Initial MIC screening, broth microdilution (CLSI)
Format: cell-based
Conditions: Staphylococcus aureus, Staphylococcus aureus NRS384 (MRSA USA300), broth microdilution, visual reading; read-out: MIC
test.readout: MIC

C=C(C(=O)OC)C(c1cccc2ccccc12)C(O)c1ccccc1 (stereo not drawn) [Compound 144] = 1 to 2 µg/mL

Documented MIC of CCC[C@@H]1[C@H](CN2CCCCC2)C(=O)O[C@H]1c1ccc(SC)cc1 [Compound 45] : > 128 µg/mL

Documented MIC of COc1cc([C@H]2OC(=O)C(CN3CCCCC3)[C@H]2c2ccccc2Br)ccc1OCc1ccccc1 (stereo partly drawn) [Compound 27] : > 128 µg/mL

Documented MIC of C=C1C(=O)O[C@H](c2ccc(OC)cc2)[C@@H]1C [Compound 117] : > 128 µg/mL

====

Test system: Staphylococcus aureus NRS384 (MRSA USA300)
Test: Initial MIC screening, broth microdilution (CLSI)
Assay type: cell-based
Conditions: Staphylococcus aureus, Staphylococcus aureus NRS384 (MRSA USA300), broth microdilution, visual reading; read-out: MIC
Reported MIC is given for each of the following compounds.

C=C1C(=O)O[C@H](C2CCCCC2)[C@@H]1c1ccc(C)cc1 = > 128 µg/mL

Documented MIC of C=C1C(=O)O[C@H](c2ccccc2)[C@@H]1c1cccc2ccccc12 : 1 to 2 µg/mL

Documented MIC of C=C1C(=O)O[C@H](c2cccc(F)c2F)[C@H]1c1ccccc1 : 16 µg/mL

Documented MIC of O=C1O[C@H](C2CCCCC2)C[C@@H]1CN1CCCCC1 : > 128 µg/mL

Documented MIC of COc1ccc([C@H]2OC(=O)C(CN(C)C)[C@H]2c2ccc(OC)cc2)cc1 (some centres unmarked) : > 128 µg/mL

====

System: Staphylococcus aureus NRS384 (MRSA USA300)
Test: Initial MIC screening, broth microdilution (CLSI)
Format: cell-based
Settings: Staphylococcus aureus, Staphylococcus aureus NRS384 (MRSA USA300), broth microdilution, visual reading; read-out: MIC
test.readout: MIC (µg/mL)

Before answering, review these 2 worked examples.
C=C1C(=O)O[C@H](c2ccccc2OC)[C@@H]1c1ccccc1Br = 16
C=C1C(=O)O[C@H](c2ccccc2OC)[C@@H]1c1ccc(C(F)(F)F)cc1 = 8

(P) C=C(C(=O)OC)C(c1ccccc1)C(O)c1ccc2ccccc2c1 (stereo not shown)
(Q) C=C1C(=O)O[C@H](c2cc(OC)c(OC)c(OC)c2)[C@@H]1c1ccc(C#N)cc1
Compare the recorded MIC of P and Q ; state which is larger. Please indicate the selected item by its label. Q

====

System: Staphylococcus aureus NRS384 (MRSA USA300)
Assay: Initial MIC screening, broth microdilution (CLSI)
Type: cell-based
Settings: Staphylococcus aureus NRS384 (MRSA USA300), broth microdilution, visual reading
test.readout: MIC (µg/mL)

Before answering, review these 3 worked examples.
C=C(C(=O)OC)C(c1cccc2ccccc12)C(O)c1ccccc1 (stereo not shown) = 1
C=C1C(=O)O[C@H](c2ccccc2)[C@@H]1c1ccc2ccccc2c1 [Compound 152] = 8
C=C1C(=O)O[C@H](c2cccc3ccccc23)[C@@H]1c1ccc2ccccc2c1 = 2

(1) C=C1C(=O)O[C@H](c2ccccc2)[C@@H]1c1cccc2ccccc12
(2) C=C1C(=O)O[C@H](c2ccccc2)[C@@H]1c1ccc2ccccc2c1 [Compound 112]
(3) C=C1C(=O)O[C@H](c2ccc3ccccc3c2)[C@@H]1c1ccccc1
List items by MIC in falling order. Ranked list of labels, please, in the requested order. 2, 3, 1

Where these numbers come from: patent US20210317099A1
